- Tested on: human Prostaglandin E2 (Subtype EP2) receptor (Homo sapiens, UniProt P43116)
- Sequence (P43116 whole entry): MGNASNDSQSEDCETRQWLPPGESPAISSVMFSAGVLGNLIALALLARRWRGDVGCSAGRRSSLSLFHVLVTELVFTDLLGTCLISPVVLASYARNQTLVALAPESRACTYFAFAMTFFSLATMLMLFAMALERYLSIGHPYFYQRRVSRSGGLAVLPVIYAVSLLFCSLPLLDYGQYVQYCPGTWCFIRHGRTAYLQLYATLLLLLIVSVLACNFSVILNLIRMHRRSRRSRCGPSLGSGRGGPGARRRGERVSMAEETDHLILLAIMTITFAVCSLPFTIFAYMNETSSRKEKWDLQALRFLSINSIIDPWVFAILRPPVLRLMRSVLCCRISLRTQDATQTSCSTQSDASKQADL
- Assay remarks: cAMP antagonism assay (HTRF cAMP detection, in presence of PGE2)
- Condition parameters: cAMP antagonism test
Mark Satisfied only when IC50 stays strictly below 300 nM. Values equal to the cut-off are Not satisfied.

In [3]: df
Out[3]:
                                   molecule  assigned_class
0  O=C(NCCc1c(C(F)(F)F)[nH]c2c(Cl)cccc12)c1cc2cc(Cl)ccc2[nH]1 [Example 30]   Not satisfied

Asked: Strictly below 300 nM: is that where IC50 of COc1ccc(C(=O)NCCc2c(C)[nH]c3c(Cl)ccc(C)c23)cc1OC [Example 17] sits?
Given back: Not satisfied

Asked: Now the molecule COc1ccc(C(=O)NCCc2c(C)[nH]c3c(Cl)cccc23)cc1OC [Example 1]
Given back: Not satisfied

Asked: Now the molecule Cc1[nH]c2c(Cl)cccc2c1CCNC(=O)c1cc2cc(F)ccc2[nH]1 [Example 7]
Given back: Satisfied

Asked: Now the molecule COc1ccc(C(=O)NCCc2c(C)[nH]c3c(Cl)ccc(Cl)c23)cc1OC [Example 5]
Given back: Not satisfied

Asked: Now the molecule Cc1[nH]c2c(Cl)ccc(F)c2c1CCNC(=O)c1cc2cc(F)ccc2[nH]1 [Example 8]
Given back: Satisfied
